- target or test system: D(3) dopamine receptor (Rattus norvegicus, UniProt P19020)
- Sequence (P19020 whole entry): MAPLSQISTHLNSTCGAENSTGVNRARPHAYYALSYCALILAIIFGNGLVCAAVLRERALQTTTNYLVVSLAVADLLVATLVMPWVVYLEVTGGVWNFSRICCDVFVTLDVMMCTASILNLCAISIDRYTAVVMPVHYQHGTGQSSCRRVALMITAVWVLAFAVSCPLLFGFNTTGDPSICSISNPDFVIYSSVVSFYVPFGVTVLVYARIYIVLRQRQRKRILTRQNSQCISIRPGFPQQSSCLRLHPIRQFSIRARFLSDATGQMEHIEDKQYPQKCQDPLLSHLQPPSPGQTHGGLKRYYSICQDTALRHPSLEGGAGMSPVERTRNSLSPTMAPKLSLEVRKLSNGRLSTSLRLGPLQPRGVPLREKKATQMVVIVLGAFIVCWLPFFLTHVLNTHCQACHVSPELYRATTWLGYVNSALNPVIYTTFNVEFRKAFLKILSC
- procedure details: biochemical
- Assay type: cell-based, Sf9
- Description: In vitro binding affinity towards Dopamine receptor D3 in Sf9 cell membranes using [3H]7-OH-DPAT as radioligand
measurement type: pKi
Formally, pKi is defined as -log10 of the concentration c, with c in mol/L.

>>> endpoint_value("CC(C)OCc1ccc2n1C=C(N1CCN(C)CC1)c1ccccc1S2")
6.56
>>> endpoint_value("O=C1NCCN1CCN1CCN(C2Cn3cccc3Sc3ccc(Cl)cc32)CC1 (centres undefined)")
7.18
>>> endpoint_value("CN1CCN(C2=Cn3cccc3Sc3ccc(Br)cc32)CC1")
9.60
>>> endpoint_value("CN1CCN(C2=Cn3c(C=O)ccc3Sc3ccccc32)CC1")
6.99
>>> endpoint_value("CN1CCN(C2=Cn3c(CO)ccc3Sc3ccccc32)CC1")
6.95

# returns recorded pKi (system: D(3) dopamine receptor (Rattus norvegicus, UniProt P19020)) for COCc1ccc2n1CC(N1CCN(C)CC1)c1cc(Cl)ccc1S2 (centres undefined)
6.50

Identify the measured pKi of CN1CCN(C2=Cn3c(/C=N/O)ccc3Sc3ccccc32)CC1 for D(3) dopamine receptor (Rattus norvegicus, UniProt P19020).
5.37

Tell me reported pKi for CN1CCCN(C2=Cn3cccc3Sc3ccc(Cl)cc32)CC1 , tested with D(3) dopamine receptor (Rattus norvegicus, UniProt P19020).
8.37

----------
- target or test system: Muscarinic acetylcholine receptor M1 (Rattus norvegicus)
- Sequence (P08482 whole entry): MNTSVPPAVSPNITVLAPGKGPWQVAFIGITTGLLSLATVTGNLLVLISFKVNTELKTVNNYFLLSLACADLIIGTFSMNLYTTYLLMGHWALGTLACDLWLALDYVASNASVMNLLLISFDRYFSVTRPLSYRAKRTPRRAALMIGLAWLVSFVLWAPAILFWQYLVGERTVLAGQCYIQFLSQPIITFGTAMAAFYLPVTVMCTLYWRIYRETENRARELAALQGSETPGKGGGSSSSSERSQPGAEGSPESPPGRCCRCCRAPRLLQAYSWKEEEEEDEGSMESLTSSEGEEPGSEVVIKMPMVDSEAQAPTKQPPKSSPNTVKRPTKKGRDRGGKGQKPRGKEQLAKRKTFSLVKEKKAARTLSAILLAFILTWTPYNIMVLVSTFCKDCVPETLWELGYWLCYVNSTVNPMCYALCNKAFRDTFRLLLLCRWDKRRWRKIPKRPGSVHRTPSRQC
- procedure details: biochemical
- Type: tissue-based, Frontal cortex
- Description: In vitro binding affinity towards M1 receptor of rat frontal cortex homogenate by using radioligand [3H]QNB
measurement type: pKi
pKi here is simply -log10 of the concentration when that concentration is written in mol/L.

Entry Cc1ccc2n1C=C(N1CCN(C)CC1)c1ccccc1S2 : reported pKi = ?
5.64

----------
Reported values of pKi for individual entries
- target or test system: D(1A) dopamine receptor (Rattus norvegicus, UniProt P18901)
- Sequence (P18901 whole entry): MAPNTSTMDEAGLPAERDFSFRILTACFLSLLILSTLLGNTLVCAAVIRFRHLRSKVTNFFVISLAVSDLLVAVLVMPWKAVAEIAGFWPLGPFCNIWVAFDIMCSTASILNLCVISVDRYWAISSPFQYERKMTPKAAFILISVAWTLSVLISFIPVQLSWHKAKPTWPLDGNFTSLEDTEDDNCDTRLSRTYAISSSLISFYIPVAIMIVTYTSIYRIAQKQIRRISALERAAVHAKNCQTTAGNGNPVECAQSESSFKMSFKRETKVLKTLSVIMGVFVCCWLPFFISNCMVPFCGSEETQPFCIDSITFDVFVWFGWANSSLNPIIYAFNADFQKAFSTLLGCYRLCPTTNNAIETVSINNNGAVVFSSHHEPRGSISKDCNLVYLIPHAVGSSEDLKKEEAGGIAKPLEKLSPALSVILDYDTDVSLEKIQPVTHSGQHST
- Set-up: species or system Tissue
- Description: In vitro binding affinity towards Dopamine receptor D1 in rat tissue homogenate using [3H]-SCH- 23390 as radioligand
Reminder that pKi means the negative base-10 logarithm of the concentration expressed in mol/L.

Use the examples below as a reference point.
>>> endpoint_value("CN1CCN(C2=Cn3c(C=O)ccc3Sc3ccccc32)CC1")
5.37
>>> endpoint_value("O=C1NCCN1CCN1CCN(C2Cn3cccc3Sc3ccc(Cl)cc32)CC1 (configuration not stated)")
5.79

# pKi lookup, item CC(C)OCc1ccc2n1C=C(N1CCN(C)CC1)c1ccccc1S2
5.12

Could you share which pKi value was measured for CN1CCCN(C2=Cn3cccc3Sc3ccc(Cl)cc32)CC1 ?
8.23

Item CN1CCN(C2=Cn3cccc3Sc3ccc(Br)cc32)CC1 has what recorded pKi?
8.47

Item under review: CN1CCN(C2=Cn3c(CO)ccc3Sc3ccccc32)CC1 . Reported pKi?
5.76

Data credit: ChEMBL document CHEMBL1139457
